EC50 for assorted compounds
- MEASURED_ON: RNA-directed RNA polymerase (Influenza A virus (strain A/Puerto Rico/8/1934 H1N1), UniProt P03428+P03431+P03433)
- PROTOCOL_SUMMARY: Inhibition of RdRP activity in Influenza A virus A/PR/8/34 (H1N1) infected in HEK293T cells co-transfected with NP/PA/PB1/PB2/pPolI-Flu-ffLuc/pRL-SV40 incubated for 24 hrs by minireplicon based dual luciferase assay
Unit µM implied. Number only.

INSERT INTO measurements (compound, measured) VALUES
  ('NC(=O)c1ncn([C@@H]2O[C@H](CO)[C@@H](O)[C@H]2O)n1 [RIBAVIRIN]', 24);

Could you now consider this next compound?
So what does the record say about EC50 for "Cc1cc(-c2ccccc2)nc2nc(C(=O)Nc3ccccc3C(N)=O)nn12" ?
5.8

----------
- PROTOCOL_SUMMARY: Metabolic stability in human liver microsomes assessed as compound remaining at 10 uM preincubated for 5 mins followed by NADPH addition and measured after 60 mins by LC-MS/MS analysis
- Format: ADME, Microsome
- EXPERIMENTAL_SETUP: time 65 min, read-out: Stabilty
REPORTED_METRIC: remaining at 1 h, 10 µM (%)
Quick note: give the figure in %, leave out the unit.

Endpoint output: remaining at 1 h, 10 µM of "Cc1cc(-c2ccccc2)nc2nc(C(=O)Nc3ccccc3C(N)=O)nn12" . Value?
76

----------
- PROTOCOL_SUMMARY: Equilibrium solubility of the compound in phosphate buffer at pH 7.4 incubated for 2 hrs
- Assay type: physicochemical
- EXPERIMENTAL_SETUP: phosphate buffer, pH 7.4
Each entry below carries its reported solubility thermodynamic at 2 h.

INSERT INTO results (smiles_string, measured) VALUES
  ('COc1cc2nc(N3CCN(C(=O)c4ccco4)CC3)nc(N)c2cc1OC', '62.8 µM');

Now consider a different compound.
Can you share its solubility thermodynamic at 2 h? I mean this compound: "CC(=O)[C@H]1CC[C@H]2[C@@H]3CCC4=CC(=O)CC[C@]4(C)[C@H]3CC[C@]12C"
6.5 µM

----------
- System: MDCK
- PROTOCOL_SUMMARY: Cytotoxicity against dog MDCK cells assessed as reduction in cell viability incubated for 48 hrs by MTT assay
- Assay type: cell-based, Canis lupus familiaris
- EXPERIMENTAL_SETUP: mdck, 48 h
REPORTED_METRIC: CC50

Provide value of CC50 for this record tested with MDCK: "Cc1cc(-c2ccccc2)n2nc(C(=O)Nc3sc(C)c(C)c3C(N)=O)nc2n1"
> 250 µM

Param readout = CC50; param system = MDCK; param query = "Cc1cc(-c2ccccc2)n2nc(C(=O)Nc3sc4c(c3C(N)=O)CCC4)nc2n1" ; response: value
> 250 µM

Notebook entry, MDCK assay: CC50 of "Cc1cc(-c2ccccc2)n2nc(C(=O)Nc3c(C(N)=O)sc4ncccc34)nc2n1" = ?
> 250 µM

Give recorded CC50 with MDCK for the following compound: "Cc1cc(-c2ccccc2)nc2nc(C(=O)Nc3c(C(N)=O)sc4ncccc34)nn12"
51 µM

Can you look up CC50 on MDCK for "Cc1cc(-c2ccccc2)nc2nc(C(=O)Nc3ccccc3C(N)=O)nn12" ?
> 250 µM

----------
- System: Influenza A virus
- PROTOCOL_SUMMARY: Antiviral activity against Influenza A virus A/PR/8/34 (H1N1) infected in MDCK cells assessed as reduction in plaque formation treated 1 hr post viral infection and measured after 48 hrs post-infection by toluidine blue staining based plaque reduction assay
- Assay type: functional, organism-based
- EXPERIMENTAL_SETUP: A/Puerto Rico/8/1934(H1N1)
REPORTED_METRIC: EC50 (µM)
Response body: numeric value in µM, unit text excluded.

Example entries begin here.
INSERT INTO assay_data (compound, reported_metric, measured) VALUES
  ('Cc1cc(-c2ccccc2)nc2nc(C(=O)Nc3ccccc3C(N)=O)nn12', 'EC50', 31),
  ('Cc1cc(-c2ccccc2)n2nc(C(=O)Nc3sc4c(c3C(=O)O)CCCCC4)nc2n1', 'EC50', 50);

Requested read-out EC50, target or system Influenza A virus, entry "Cc1cc(-c2ccccc2)nc2nc(C(=O)Nc3sc4c(c3C(=O)O)CCCCC4)nn12"
70

Hi! What's the reported EC50 for "Cc1cc(-c2ccccc2)n2nc(C(=O)Nc3c(C(N)=O)sc4ccccc34)nc2n1" on Influenza A virus?
22

Find EC50 (Influenza A virus) for the entry "Cc1cc(-c2ccccc2)n2nc(C(=O)Nc3sc4c(c3C(=O)Nc3ccccn3)CCCCC4)nc2n1"
48

----------
# key: entry, value: CC50
- Test system: MDCK
- PROTOCOL_SUMMARY: Cytotoxicity against dog MDCK cells assessed as reduction in cell viability incubated for 48 hrs by MTT assay
- Type: cell-based, Canis lupus familiaris
- EXPERIMENTAL_SETUP: mdck, 48 h

Could you share which CC50 value was measured for "Cc1cc(-c2ccccc2)n2nc(C(=O)Nc3nc4ccccc4s3)nc2n1" ?
> 250 µM

What measured CC50 goes with "Cc1cc(-c2ccccc2)n2nc(C(=O)Nc3sc4c(c3C(=O)Nc3ccccn3)CCCCC4)nc2n1" ?
> 250 µM

----------
- Tested on: MDCK
- PROTOCOL_SUMMARY: Cytotoxicity against dog MDCK cells assessed as reduction in cell viability incubated for 48 hrs by MTT assay
- Assay type: cell-based, Canis lupus familiaris
- EXPERIMENTAL_SETUP: mdck, 48 h
REPORTED_METRIC: CC50

Solved entries:
INSERT INTO results (smiles_string, measured) VALUES
  ('Cc1cc(-c2ccccc2)n2nc(C(=O)Nc3sc4c(c3C(=O)O)CCCCC4)nc2n1', '> 250 µM'),
  ('Cc1cc(-c2ccccc2)n2nc(C(=O)Nc3ccccc3C(N)=O)nc2n1', '> 250 µM'),
  ('Cc1cc(-c2ccccc2)n2nc(C(=O)Nc3c(C(N)=O)sc4c3CCCCC4)nc2n1', '90 µM'),
  ('Cc1cc(-c2ccccc2)n2nc(C(=O)Nc3c(C(N)=O)sc4ccccc34)nc2n1', '> 250 µM');

Would you kindly share the measured CC50 for "Cc1cc(-c2ccccc2)n2nc(C(=O)Nc3sc4c(c3C(N)=O)CCCC4)nc2n1" ?
> 250 µM

----------
- System: Influenza A virus
- PROTOCOL_SUMMARY: Antiviral activity against Influenza A virus A/PR/8/34 (H1N1) infected in MDCK cells assessed as reduction in plaque formation treated 1 hr post viral infection and measured after 48 hrs post-infection by toluidine blue staining based plaque reduction assay
- Type: functional, organism-based
- EXPERIMENTAL_SETUP: A/Puerto Rico/8/1934(H1N1)
Please respond with yes when measured EC50 is strictly beneath 30 µM, and with no in all other cases.

INSERT INTO results (molecule, answer_label) VALUES
  ('Cc1cc(-c2ccccc2)n2nc(C(=O)Nc3sc(C)c(C)c3C(N)=O)nc2n1', 'no'),
  ('Cc1cc(-c2ccccc2)n2nc(C(=O)Nc3ccccc3C(N)=O)nc2n1', 'no'),
  ('COc1ccc(C(=O)Nc2nc3n(n2)C(c2ccccc2)C=C(C)N3)cc1 (centres undefined)', 'no'),
  ('CCC1CCc2c(sc(NC(=O)c3nc4nc(C)cc(-c5ccccc5)n4n3)c2C(N)=O)C1 (centres undefined)', 'yes');

Bench note: check whether "Cc1cc(-c2ccccc2)n2nc(C(=O)Nc3sc4c(c3C(N)=O)CCCC4)nc2n1" shows EC50 below 30 µM
no

Take the molecule "NC(=O)c1ncn([C@@H]2O[C@H](CO)[C@@H](O)[C@H]2O)n1" and say whether its EC50 is less than 30 µM.
yes

Consider the molecule "Cc1cc(-c2ccccc2)n2nc(C(=O)Nc3sc4c(c3C(N)=O)CCC4)nc2n1" . Is its EC50 strictly less than 30 µM?
yes

Strictly below 30 µM in EC50? "Cc1cc(-c2ccccc2)nc2nc(C(=O)Nc3ccsc3C(N)=O)nn12"
no

Find out if reported EC50 for "Cc1cc(-c2ccccc2)n2nc(C(=O)Nc3c(C(N)=O)sc4c3CCCCC4)nc2n1" is less than 30 µM
no

Take the molecule "Cc1cc(-c2ccccc2)n2nc(C(=O)Nc3nc4ccccc4s3)nc2n1" and say whether its EC50 is less than 30 µM.
no

----------
A collection of compounds and their measured CC50
- Tested on: MDCK
- PROTOCOL_SUMMARY: Cytotoxicity against dog MDCK cells assessed as reduction in cell viability incubated for 48 hrs by MTT assay
- Type: cell-based, Canis lupus familiaris
- EXPERIMENTAL_SETUP: mdck, 48 h
# value in µM; strip the unit string

What measured CC50 is associated with "Cc1cc(-c2ccccc2)nc2nc(C(=O)Nc3nc4ccccc4s3)nn12" on MDCK?
233

Value wanted: CC50 (MDCK) of entry "Cc1cc(-c2ccccc2)nc2nc(C(=O)Nc3ccsc3C(N)=O)nn12"
240
